Entries and their measured residual activity follow.
# Target Under Test: EPHA8 (human) (UniProt P29322)
# Sequence (P29322 whole entry, looked up): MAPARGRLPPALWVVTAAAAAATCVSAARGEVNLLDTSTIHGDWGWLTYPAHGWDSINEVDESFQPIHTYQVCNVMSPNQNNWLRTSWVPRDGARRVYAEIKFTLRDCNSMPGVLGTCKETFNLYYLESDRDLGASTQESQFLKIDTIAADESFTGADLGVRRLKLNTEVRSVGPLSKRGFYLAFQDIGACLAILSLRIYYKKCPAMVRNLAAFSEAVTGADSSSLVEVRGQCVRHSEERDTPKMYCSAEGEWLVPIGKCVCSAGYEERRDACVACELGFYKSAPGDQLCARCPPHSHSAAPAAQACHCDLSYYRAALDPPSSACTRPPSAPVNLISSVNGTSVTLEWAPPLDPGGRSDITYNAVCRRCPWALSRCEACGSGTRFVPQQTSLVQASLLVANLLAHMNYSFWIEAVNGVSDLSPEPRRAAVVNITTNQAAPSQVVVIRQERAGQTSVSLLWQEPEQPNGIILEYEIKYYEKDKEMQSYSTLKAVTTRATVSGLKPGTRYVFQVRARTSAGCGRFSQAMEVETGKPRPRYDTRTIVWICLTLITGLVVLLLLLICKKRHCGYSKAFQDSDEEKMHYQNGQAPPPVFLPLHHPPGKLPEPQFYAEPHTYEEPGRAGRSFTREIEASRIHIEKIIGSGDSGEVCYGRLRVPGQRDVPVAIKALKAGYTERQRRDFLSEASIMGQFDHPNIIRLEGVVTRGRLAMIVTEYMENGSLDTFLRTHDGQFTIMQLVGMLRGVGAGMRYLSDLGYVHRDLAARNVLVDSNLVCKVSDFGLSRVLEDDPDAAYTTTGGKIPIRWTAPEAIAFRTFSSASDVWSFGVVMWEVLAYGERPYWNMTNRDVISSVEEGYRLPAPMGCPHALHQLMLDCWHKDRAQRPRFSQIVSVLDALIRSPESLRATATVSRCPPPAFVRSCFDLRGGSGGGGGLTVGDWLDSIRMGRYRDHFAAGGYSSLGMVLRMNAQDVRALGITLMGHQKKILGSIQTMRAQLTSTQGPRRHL
# Assay Overview: radiometric filter-binding kinase assay, Kinase HotSpot
# Condition Summary: compound 0.5 µM; ATP 10 µM
Give the value, in units of %, as a plain number.

Below, 6 compounds whose answers are already recorded.
{"Entry Smiles": "N#C/C(=C1/Nc2ccccc2S1)c1ccnc(NCCc2cccnc2)n1", "Target Under Test": "EPHA8 (human) (UniProt P29322)", "residual activity (%)": 98.5}
{"Entry Smiles": "O=C1NC(=O)c2cc(Nc3ccc(F)cc3)c(Nc3ccc(F)cc3)cc21", "Target Under Test": "EPHA8 (human) (UniProt P29322)", "residual activity (%)": 95.5}
{"Entry Smiles": "O=C1NC(=O)c2c1c1c3ccccc3[nH]c1c1[nH]c3cc(Br)ccc3c21", "Target Under Test": "EPHA8 (human) (UniProt P29322)", "residual activity (%)": 102}
{"Entry Smiles": "O=c1c(-c2ccc(F)cc2)c(-c2ccncc2)[nH]n1-c1ccc(Cl)cc1", "Target Under Test": "EPHA8 (human) (UniProt P29322)", "residual activity (%)": 94.4}
{"Entry Smiles": "O=c1cc(N2CCOCC2)oc2c(-c3ccccc3)cccc12", "Target Under Test": "EPHA8 (human) (UniProt P29322)", "residual activity (%)": 103}
{"Entry Smiles": "COc1cc2c(Nc3ccc(Br)cc3F)ncnc2cc1OCC1CCN(C)CC1", "Target Under Test": "EPHA8 (human) (UniProt P29322)", "residual activity (%)": 33.9}

Now, please, on to the next compound.
Indicate the recorded residual activity value for this compound: "FC(F)(F)c1ccc(/C=C/c2nc(COc3ccc(CCCCn4ccnn4)cc3)co2)cc1"
104

These entries and their values trace back to the kinase profiling compilation of Christmann-Franck et al. (2016).
